# system.name: SARS-CoV-2 PLpro-NAB (Severe acute respiratory syndrome coronavirus 2, UniProt P0DTD1)
# method.summary: biochemical
# assay.setup: 1 mM L-cysteine vs 1 mM DTT
readout.name: Inhibition in L-cysteine buffer versus DTT buffer (dose-response)

molecule	reported.measurement
O=c1c(O)cccc2cc(O)c(O)c(O)c12 [purpurogallin]	increased inhibition
O=c1cc(-c2cc(O)c(O)c(O)c2)oc2cc(O)c(O)c(O)c12 [DOM_SIM_710, 3′,4’,5′,5,6,7-hexahydroxyflavone]	increased inhibition

###

Known IC50 of a selection of compounds
# system.name: SARS-CoV-2 PLpro-NAB (Severe acute respiratory syndrome coronavirus 2)
# method.summary: biochemical
# assay.setup: Table S1; L-cysteine buffer; read-out: HP PLpro-NAB SARS-CoV-2 IC50 [µM] duplicates L-CYS BUFFER

compound	system.name	reported.measurement
O=C(O)c1c(Cl)c(Cl)c(Cl)c(Cl)c1-c1c2cc(I)c(=O)c(I)c-2oc2c(I)c(O)c(I)cc12 [Rose Bengal Sodium]	SARS-CoV-2 PLpro-NAB (Severe acute respiratory syndrome coronavirus 2)	> 20 µM

Now look at this one.
API: value(readout= IC50, system= SARS-CoV-2 PLpro-NAB (Severe acute respiratory syndrome coronavirus 2), query= O=C1C(Cl)=C(NCCN2CCOCC2)C(=O)c2ncccc21 )
> 20 µM

All figures here come from paper PMC11729419.
